The following molecules are shown together with reported composite z-score values.
- Test system: Neuregulin-1 EGF-like domain
- ASSAY_NAME: binders of neuregulin-1 EGF-like domain, primary screen, biochemical, small-molecule microarray, 635 nm fluorescence (AID 1081);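 also: binding of the protein to compounds printed on small-molecule microarray slides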
- RUN_CONDITIONS: small-molecule microarray binding, higher = more signal
Output spec: single numeric token, no unit.

These recorded examples may help you get a feel for the data.
molecule=C=C(CCCC)/C(=C/C[C@@H](OC(=O)c1ccncc1)c1ccc(CO)o1)c1cnc2ccccc2c1 target_under_test="Neuregulin-1 EGF-like domain" readout_label="composite z-score" readout_value=0.743
molecule=CO[C@H]1COC(=O)CC=C[C@H](C)[C@@H](OC)COC(=O)[C@H](Cc2ccccc2)NC(=O)CC=C[C@@H]1C target_under_test="Neuregulin-1 EGF-like domain" readout_label="composite z-score" readout_value=-1.09
molecule=O=C1c2ccccc2[C@](Cc2ccccc2I)(C(=O)O)[C@H](c2ccc(CO)cc2)N1C1CCCCC1 target_under_test="Neuregulin-1 EGF-like domain" readout_label="composite z-score" readout_value=1.32
molecule=COCCOC(=O)N1C(=O)[C@@]2(c3cc(C#CCNC(N)=O)ccc31)[C@H](C(=O)N1CCCCCCC1)[C@H]1C(=O)O[C@H](c3ccccc3)[C@H](c3ccccc3)N1[C@@H]2c1ccccc1OCCO target_under_test="Neuregulin-1 EGF-like domain" readout_label="composite z-score" readout_value=1.05
molecule=CC(=O)NCCCC[C@@H]1NC(=O)[C@@H]2C[C@H](C(=O)NCCCCCCN(C)C)[C@H](c3ccc(O)cc3)N2C1=O target_under_test="Neuregulin-1 EGF-like domain" readout_label="composite z-score" readout_value=1.51
molecule="CN1C(=O)C2C=CC(C(O)C3CC=CCC3)N(Nc3ccccc3)C2C1=O (configuration not stated)" target_under_test="Neuregulin-1 EGF-like domain" readout_label="composite z-score" readout_value=1.29

Then there is this molecule:
Request the reported composite z-score associated with CCCC=C(CCC)[C@@H](NS(=O)(=O)c1cccc(C(F)(F)F)c1)c1ccc(C(=O)OC)cc1 0.53

====

- ASSAY_NAME: binders of probe aFST on microarray, primary screen, stem cell growth factor project, biochemical, small-molecule microarray, fluorescence 635/667 (AID 1086);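 also: score merges 667 nm fluorescence with signal-to-noise of each printed compound spot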
- RUN_CONDITIONS: higher = more signal
Respond with y for composite z-score values of 0.2 and above, n for values below.

Look over these answered cases.
compound=COc1ccc([Si](C)(C)[C@H]2[C@H](CCO)O[C@@]3(C(=O)N(Cc4ccccc4)c4ccc(N5C(=O)c6cccc7cccc5c67)cc43)[C@@H]2C)cc1 class_assignment=n
compound=C=C(/C(=C/C[C@@H](OC(=O)c1ccncc1)c1ccc(CO)o1)c1cnc2ccccc2c1)C(C)C class_assignment=y

Does composite z-score meet or surpass 0.2 for CO[C@H]1COC(=O)CC=C[C@H](C)[C@@H](OC)COC(=O)[C@H](Cc2ccccc2)NC(=O)CC=C[C@@H]1C ? n

Dear colleague, could you confirm whether CC(C)NC(=O)[C@@]1(Cc2ccccc2I)c2ccccc2C(=O)N(C2CCCCC2)[C@H]1c1ccc(CO)cc1 has composite z-score at or above 0.2? y

Given the entry COC(=O)C(CC#Cc1ccc2c(c1)[C@]1(C(=O)N2)[C@H](C(=O)N2CCCCCCC2)[C@H]2C(=O)O[C@H](c3ccccc3)[C@H](c3ccccc3)N2[C@@H]1c1ccc(O)cc1)C(=O)OC , answer whether its composite z-score meets or surpasses 0.2. n

Can O=C1c2ccccc2[C@](Cc2ccccc2I)(C(=O)NCC(F)(F)F)[C@H](c2ccc(CO)cc2)N1Cc1ccccc1C(F)(F)F be said to have composite z-score at or above 0.2? y

Has O=C1OCCC=C[C@H]2OC34C=CCN(Cc5ccccc5)C(=O)[C@H]3N(CCO)C(=O)[C@@H]4C12 (some centres undefined) a recorded composite z-score greater than or equal to 0.2? n

State whether the measured composite z-score reaches 0.2, counting equality as reaching it, for COCCOC(=O)N1C(=O)[C@@]2(c3cc(C#CCNC(N)=O)ccc31)[C@H](c1ccc(OCCO)cc1)N1[C@H](c3ccccc3)[C@H](c3ccccc3)OC(=O)[C@H]1[C@@H]2C(=O)Nc1nc2ccccc2s1 y

Decide: composite z-score of C=CCC(OC(C)=O)[C@@H]1[C@@H](N(Cc2ccc(-c3ccccc3)cc2)C(=O)c2ccc(C)cc2)c2cc(OCCCO)ccc2N1C(=O)c1ccc(-c2ccccc2)cc1 (some centres undefined) >= 0.2? n

====

- Test system: Wnt5a (protein binding on small-molecule microarray)
- ASSAY_NAME: Wnt5a binders on small-molecule microarray, primary screen, biophysical, 635/667 nm fluorescence (AID 1142);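 also: fluorescence read at 667 nm with signal to noise per printed feature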
- RUN_CONDITIONS: 635 nm fluorescence, higher = more signal
Decision: composite z-score compared against 0.1; not below it gives label 1, below it gives label 0.

Could you tell me if the measured composite z-score of C=C(CCCC)/C(=C/C[C@@H](OC(=O)c1ccncc1)c1ccc(CO)o1)c1cnc2ccccc2c1 reaches 0.1 or more? label 1

# bool: composite z-score of CC(C)N1CC=CC23O[C@@H]4/C=C\CCCOC(=O)C4[C@H]2C(=O)N(CCCCCO)[C@@H]3C1=O (some centres undefined) >= 0.1 label 0

Can C=CCC(OC(C)=O)[C@@H]1[C@@H](N(Cc2ccc(-c3cccc(C(F)(F)F)c3)o2)C(=O)Cc2ccc(F)cc2)c2cc(OCCCO)ccc2N1C(=O)c1ccc(-c2ccccc2)cc1 (some centres undefined) be said to have composite z-score at or above 0.1? label 0

// inclusive: composite z-score at least 0.1? input: CO[C@H]1O[C@H](CO)[C@@H](OC(=O)CCc2ccccc2)[C@@H]2OC(=O)[C@H](Cc3cccc(Br)c3)C/C=C/C[C@@H](Cc3cccc(Br)c3)C(=O)O[C@@H]12 label 0

Textbook exercise: given the entry O=C(NCc1ccccc1)c1ccc(Br)cc1[N+](=O)[O-] , state whether its composite z-score is greater than or equal to 0.1. label 1

Decide: composite z-score of O=C1C2C=CC(C(O)c3ccccc3)N(n3cnnc3)C2C(=O)N1Cc1ccccc1 (centres undefined) >= 0.1? label 0

====

- TARGET_UNDER_TEST: Fibroblast growth factor 2 (Homo sapiens) (UniProt P09038)
- Sequence (P09038 whole entry, looked up): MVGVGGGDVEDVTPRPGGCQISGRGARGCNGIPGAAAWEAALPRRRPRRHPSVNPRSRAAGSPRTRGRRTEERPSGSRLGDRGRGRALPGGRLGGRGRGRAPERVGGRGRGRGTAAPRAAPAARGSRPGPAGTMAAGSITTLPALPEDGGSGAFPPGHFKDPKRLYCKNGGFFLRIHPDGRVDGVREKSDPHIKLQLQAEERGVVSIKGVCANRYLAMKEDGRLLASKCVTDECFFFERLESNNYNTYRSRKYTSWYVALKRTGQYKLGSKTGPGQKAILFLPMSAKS
- ASSAY_NAME: FGF2 binders on small-molecule microarrays, primary screen, biochemical, small-molecule microarray, 635/667 nm fluorescence (AID 1133)
- RUN_CONDITIONS: small-molecule microarray binding, FGF2, fluorescence 635/667; higher = more signal
// reported composite z-score per item
No unit in the answer, please; the number alone is enough.

Example entries begin here.
compound=C=C[C@H](OC)[C@@H](OC(=O)Nc1ccc(SC)cc1)c1ccc(OC)c(O)c1 readout_value=-0.896
compound=CO[C@H]1COC(=O)[C@H](Cc2ccccc2)NC(=O)CC=C[C@@H](C)[C@H](OC)COC(=O)CC=C[C@@H]1C readout_value=0.144

Item under review: O=C1OCCC=C[C@H]2OC34C=CCN(Cc5ccccc5)C(=O)[C@H]3N(CCO)C(=O)[C@@H]4C12 (stereo not given in full) . Reported composite z-score? -0.379

====

- ASSAY_NAME: Plasmodium falciparum growth inhibition, primary screen, strain 3D7, DAPI fluorescence, 100 nL (AID 1184);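 also: parasites grown inside human red blood cells in medium with human serum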
- RUN_CONDITIONS: P. falciparum 3D7 growth, 3 d, higher = more signal
The label depends only on z-score: label 1 if it is at least -0.9, label 0 if it is smaller.

Identify whether the reported z-score of the following compound is -0.9 or greater: [N-]=[N+]=NCc1ccccc1C[C@@]1(C(=O)O)N=C(c2ccc(OCCCO)cc2)O[C@@H]1c1ccccc1N=[N+]=[N-] label 0

Could you tell me if the measured z-score of C=C(C(=O)CC[C@H](OC(=O)c1ccccc1-c1ccccc1C(=O)O)c1ccc(CO)o1)C(C)C reaches -0.9 or more? label 1

Identify whether the reported z-score of the following compound is -0.9 or greater: COc1ccc([Si](C)(C)[C@H]2[C@H](CC(=O)N3Cc4ccccc4C[C@H]3CO)O[C@@]3(C(=O)N(Cc4cccc(N5CCOC5=O)c4)c4ccccc43)[C@@H]2C)cc1 label 0

Is the recorded value of z-score equal to or greater than -0.9 for this compound? Cc1ccc(S(=O)(=O)c2cc3oc2CC[C@@H](CO)NC(=O)N(C)Cc2cn(nn2)C[C@H](Cc2ccccc2)NC3=O)cc1 label 1

Would you say CN(C)c1ccc(C(O)C2C=CC3C(=O)NC(=O)C3N2Nc2ccc(Cl)cc2Cl)cc1 (stereo not given) shows z-score at minimum -0.9? label 1

Record CCOC(=O)C[C@H]1[C@H](OC(=O)c2ccccc2-c2ccccc2)[C@@H](NC(=O)C2CCCCC2)c2cc(OCCCO)ccc2N1C(=O)c1ccccc1 ; criterion: z-score no lower than -0.9. Met? label 0

Record COc1ccc(C(O)C2C=CC3C(=O)N(C)C(=O)C3N2N2CCCCC2)cc1OCc1ccccc1 (stereo not given) ; criterion: z-score no lower than -0.9. Met? label 1

For this compound, is measured z-score -0.9 or higher? CCCC[C@@H]1C[C@H]1[C@@H](NC(=O)c1ccccc1)c1ccccc1C(F)(F)F label 0

In plain terms: is recorded z-score at least -0.9 for O=C(NCc1ccccc1)[C@@]1(Cc2ccccc2)COC(c2ccc(OCCCO)cc2)=N1 ? label 0

Quick check: does COCCOC(=O)N1C(=O)[C@@]2(c3cc(C#CCCO)ccc31)[C@H](c1ccc(O)cc1)N1[C@H](c3ccccc3)[C@H](c3ccccc3)OC(=O)[C@H]1[C@@H]2C(=O)Nc1nc2ccccc2s1 have z-score greater than or equal to -0.9? label 0

Given the entry C=CCC(OC(C)=O)[C@@H]1[C@@H](N(Cc2cc3ccccc3o2)C(=O)c2ccc(C)cc2)c2cc(OCCCO)ccc2N1C(=O)c1ccc2ccccc2n1 (stereo not given in full) , answer whether its z-score meets or surpasses -0.9. label 1

Hello, I need to know if C=CCN1C(=O)[C@@]2(Cc3ccccc3)N=C(c3ccc(OCCCO)cc3)O[C@H]2c2ccccc21 has measured z-score not below -0.9. Thanks! label 0

Does the compound COCCOC(=O)N1C(=O)[C@@]2(c3cc(C#CC4=CCCCC4)ccc31)[C@H](c1ccc(O)cc1)N1[C@H](c3ccccc3)[C@H](c3ccccc3)OC(=O)[C@H]1[C@@H]2C(=O)N1CCCCCCC1 have recorded z-score that is -0.9 or more? label 0

For this compound, is measured z-score -0.9 or higher? C=C(C)[C@@H]1CC=C(C(O)C2C=CC3C(=O)NC(=O)C3N2Nc2ccccn2)CC1 (stereo not given in full) label 1
